Protocol Notes: Solubility of the mesylate salt in aqueous solution at pH 1 to 11 (UV-Vis assay)
Type: physicochemical
Test Parameters: aqueous solution, 4 °C, pH 7.9, aqueous buffer, thermodynamic from solid, initial pH 10.97, final pH 7.90
Description: Solutions were prepared by titrating standard hydrochloric acid with dilute sodium hydroxide solution to a desired pH. […] These solutions were then used to assess the solubility of 4-(2,6-dichlorobenzoylamino)-1/i-pyrazole-3-carboxylic acid piperidin-4-ylamide methanesulphonate. In each experiment, 150 mg of the methanesulphonate salt was weighed into a 5 ml clear vial and 3-4 ml of a solution of a given pH was added. […]
Counter-ions that a name gives are not always drawn.

{"Molecule": "O=C(NC1CCNCC1)c1n[nH]cc1NC(=O)c1c(Cl)cccc1Cl [mesylate salt, methanesulphonate]", "solubility at 3 h / mg/mL": 30.9}

----------
Protocol Notes: Solubility of the mesylate salt in aqueous solution at pH 1 to 11 (UV-Vis assay)
Format: physicochemical
Test Parameters: aqueous solution, pH 7.9, aqueous buffer, thermodynamic from solid, ambient temperature, initial pH 7.69, final pH 7.90
Procedure: Solutions were prepared by titrating standard hydrochloric acid with dilute sodium hydroxide solution to a desired pH. […] These solutions were then used to assess the solubility of 4-(2,6-dichlorobenzoylamino)-1/i-pyrazole-3-carboxylic acid piperidin-4-ylamide methanesulphonate. In each experiment, 150 mg of the methanesulphonate salt was weighed into a 5 ml clear vial and 3-4 ml of a solution of a given pH was added. […]
Structures can show the parent of a compound that is named as a salt.

{"Compound": "O=C(NC1CCNCC1)c1n[nH]cc1NC(=O)c1c(Cl)cccc1Cl [mesylate salt, methanesulphonate]", "solubility at 3 h [mg/mL]": 42.1}

----------
Protocol Notes: Solubility of the mesylate salt in buffered solutions (HPLC assay)
Type: physicochemical
Test Parameters: acetate buffer, pH 4.6, aqueous buffer, thermodynamic from solid, acetate buffer 200 mM at ambient temperature, initial pH 4.6, final pH 4.5; read-out: [Mesylate salt] solubility
Structures can show the parent of a compound that is named as a salt.
Property Name: solubility at 3 h (mg/mL)

{"Compound": "O=C(NC1CCNCC1)c1n[nH]cc1NC(=O)c1c(Cl)cccc1Cl [mesylate salt, methanesulphonate]", "Test Value": 30.7}

----------
Protocol Notes: Solubility of the mesylate salt in buffered solutions (HPLC assay)
Type: physicochemical
Test Parameters: acetate buffer, pH 4.6, aqueous buffer, thermodynamic from solid, acetic acid/sodium acetate buffer, solution pH approximately 4.6; read-out: solubility
Structures can show the parent of a compound that is named as a salt.

{"Compound": "O=C(NC1CCNCC1)c1n[nH]cc1NC(=O)c1c(Cl)cccc1Cl [mesylate salt, methanesulphonate]", "solubility at 3 h": "~35 mg/mL"}

----------
Protocol Notes: Solubility of the mesylate salt in aqueous solution at pH 1 to 11 (UV-Vis assay)
Type: physicochemical
Test Parameters: aqueous solution, 4 °C, pH 7.69, aqueous buffer, thermodynamic from solid, initial pH 7.69, final pH 7.69
Counter-ions that a name gives are not always drawn.
Property Name: solubility at 3 h

{"Compound": "O=C(NC1CCNCC1)c1n[nH]cc1NC(=O)c1c(Cl)cccc1Cl [mesylate salt, methanesulphonate]", "Test Value": "37.9 mg/mL"}

----------
Protocol Notes: Solubility of the mesylate salt in aqueous solution at pH 1 to 11 (UV-Vis assay)
Format: physicochemical
Test Parameters: aqueous solution, pH 1.06, simulated gastric fluid, thermodynamic from solid, ambient temperature, initial pH 1.00, final pH 1.06
Procedure: Solutions were prepared by titrating standard hydrochloric acid with dilute sodium hydroxide solution to a desired pH. […] These solutions were then used to assess the solubility of 4-(2,6-dichlorobenzoylamino)-1/i-pyrazole-3-carboxylic acid piperidin-4-ylamide methanesulphonate. In each experiment, 150 mg of the methanesulphonate salt was weighed into a 5 ml clear vial and 3-4 ml of a solution of a given pH was added. […]
Counter-ions that a name gives are not always drawn.
Property Name: solubility at 3 h (mg/mL)

{"Molecule": "O=C(NC1CCNCC1)c1n[nH]cc1NC(=O)c1c(Cl)cccc1Cl [mesylate salt, methanesulphonate]", "Quantity Unit": "mg/mL", "Test Value": 40.3}

----------
Protocol Notes: Solubility of the mesylate salt in aqueous solution at pH 1 to 11 (UV-Vis assay)
Assay type: physicochemical
Test Parameters: aqueous solution, 4 °C, pH 0.26, simulated gastric fluid, thermodynamic from solid, initial pH 0.26, final pH 0.26
Counter-ions that a name gives are not always drawn.

{"Molecule": "O=C(NC1CCNCC1)c1n[nH]cc1NC(=O)c1c(Cl)cccc1Cl [mesylate salt, methanesulphonate]", "solubility at 3 h (µg/mL)": 9850}

----------
Protocol Notes: Solubility of the mesylate salt in aqueous solution at pH 1 to 11 (UV-Vis assay)
Assay type: physicochemical
Test Parameters: aqueous solution, pH 7.6, aqueous buffer, thermodynamic from solid, ambient temperature, initial pH 10.97, final pH 7.6
Structures can show the parent of a compound that is named as a salt.
Property Name: solubility at 3 h (mg/mL)

{"Compound": "O=C(NC1CCNCC1)c1n[nH]cc1NC(=O)c1c(Cl)cccc1Cl [mesylate salt, methanesulphonate]", "Test Value": 34.6}

----------
Protocol Notes: Solubility of the mesylate salt in aqueous solution at pH 1 to 11 (UV-Vis assay)
Assay type: physicochemical
Test Parameters: aqueous solution, pH 3, aqueous buffer, thermodynamic from solid, ambient temperature, initial pH 2.51, final pH 3.00
Method: Solutions were prepared by titrating standard hydrochloric acid with dilute sodium hydroxide solution to a desired pH. […] These solutions were then used to assess the solubility of 4-(2,6-dichlorobenzoylamino)-1/i-pyrazole-3-carboxylic acid piperidin-4-ylamide methanesulphonate. In each experiment, 150 mg of the methanesulphonate salt was weighed into a 5 ml clear vial and 3-4 ml of a solution of a given pH was added. […]
Where a name gives a salt, the structure may show the parent alone.

{"Compound": "O=C(NC1CCNCC1)c1n[nH]cc1NC(=O)c1c(Cl)cccc1Cl [mesylate salt, methanesulphonate]", "solubility at 3 h": "44.9 mg/mL"}

----------
Protocol Notes: Solubility of the mesylate salt in aqueous solution at pH 1 to 11 (UV-Vis assay)
Format: physicochemical
Test Parameters: aqueous solution, 4 °C, pH 2.51, aqueous buffer, thermodynamic from solid, initial pH 2.51, final pH 2.51
Structures can show the parent of a compound that is named as a salt.
Property Name: solubility at 3 h

{"Compound": "O=C(NC1CCNCC1)c1n[nH]cc1NC(=O)c1c(Cl)cccc1Cl [mesylate salt, methanesulphonate]", "Test Value": "41.5 mg/mL"}

----------
Protocol Notes: Solubility of the mesylate salt in aqueous solution at pH 1 to 11 (UV-Vis assay)
Assay type: physicochemical
Test Parameters: aqueous solution, 4 °C, pH 7.4, aqueous buffer, thermodynamic from solid, initial pH 9.04, final pH 7.40
Description: Solutions were prepared by titrating standard hydrochloric acid with dilute sodium hydroxide solution to a desired pH. […] These solutions were then used to assess the solubility of 4-(2,6-dichlorobenzoylamino)-1/i-pyrazole-3-carboxylic acid piperidin-4-ylamide methanesulphonate. In each experiment, 150 mg of the methanesulphonate salt was weighed into a 5 ml clear vial and 3-4 ml of a solution of a given pH was added. […]
Structures can show the parent of a compound that is named as a salt.
Property Name: solubility at 3 h (mg/mL)

{"Compound": "O=C(NC1CCNCC1)c1n[nH]cc1NC(=O)c1c(Cl)cccc1Cl [mesylate salt, methanesulphonate]", "Test Value": 30.4}

----------
Protocol Notes: Solubility of the mesylate salt in aqueous solution at pH 1 to 11 (UV-Vis assay)
Format: physicochemical
Test Parameters: aqueous solution, pH 7.3, aqueous buffer, thermodynamic from solid, ambient temperature, initial pH 7.34, final pH 7.30
Where a name gives a salt, the structure may show the parent alone.
Property Name: solubility at 3 h

{"Compound": "O=C(NC1CCNCC1)c1n[nH]cc1NC(=O)c1c(Cl)cccc1Cl [mesylate salt, methanesulphonate]", "Test Value": "44.5 mg/mL"}
